test_summary: Toxicity, LD50 for a mouse
measurement_parameters: in vivo
measurement_type: LD50 (mg/kg)
Numbers only here, please. The scale is mg/kg.

For the molecule shown here, CCOC(=O)C(CC(=O)c1ccccc1)NCCO (stereo not shown) , give the reported LD50.
7600
